The measured values listed here are drawn from a melting point compilation (Tetko et al.; mined from patent text by program, amines drawn as free bases though some values may be those of a salt).

So I've got a bunch of compounds here, and I need their melting point values.

>>> value_measured("Cc1c(SCCSCCn2c([N+](=O)[O-])cnc2C)ccnc1CNc1cnc2ccccc2c1")
"152 to 154 °C"

Below are 5 compounds. Give each one its melting point.
1. COc1cc(OCc2ccccn2)ccc1/C=C/c1cc(/C=C/c2c[nH]c3ccc(F)cc23)n[nH]1
2. COC1(C=CCOc2ccc3c(-c4ccc(F)cc4)c4c(cc3c2)C(=O)OC4)CCOCC1
3. CCSc1cccc2c1C(=O)c1cccc(SCC)c1C2=O
4. COC(=O)COCCOc1ccc(N)cc1
5. CCCCCCC(=O)C=Cc1ccc(OCc2ccccc2)c(OC)c1

209 to 213 °C
144 to 148 °C
235 to 236 °C
51 to 52.5 °C
78 to 81 °C

Each compound below has a recorded value; state its melting point.
1. COC(=O)c1cc2c(Cl)cccc2s1
2. Nc1ccc(C(=O)OCCCCl)c(N)c1
3. COC(=O)Cc1ccc(OCc2ccc(-c3ccccc3)cc2)cc1
4. O=c1[nH]c(COc2cccc(Cl)c2Cl)nc2nccnc12

1: 84 to 86 °C; 2: 97 °C; 3: 115 to 116 °C; 4: 219 to 220 °C

###

METRIC: melting point

>>> value_measured("Nc1cc(-n2cc(C(=O)O)c(=O)c3cc(F)c(Cl)nc32)c(F)cc1Cl")
"> 270 °C"

Return reported melting point values for all items listed beneath this line.
1. CC(C)NC1CN(c2c(F)cc3c(=O)c(C(=O)O)cn(-c4nc(N)c(F)cc4F)c3c2Br)C1
2. COC(=O)CN(c1cc2cc(OC)c(=O)oc2cc1OCc1ccccc1)S(N)(=O)=O
3. COc1cccc(N2CCN(CC(O)COC(c3ccccc3)c3cccc4ccccc34)CC2)c1 (stereo not given)
4. Cc1cc(OCc2ccccc2)c2cc(C(=O)O)[nH]c2c1

1. > 203 °C
2. 178 to 179 °C
3. 84 °C
4. 178 to 180 °C

###

METRIC: melting point

Here is how some compounds turned out for melting point.
>>> value_measured("CN1CCC(OC2c3cccc(OCc4ccccc4)c3CCn3cc(-c4ccccc4)nc32)CC1 (stereo not drawn)")
"68 °C"
>>> value_measured("Cn1ccc(=O)c(O)c1C(O)c1ccccc1 (stereo not drawn)")
"210 to 213 °C"
>>> value_measured("CC1(C)CC(=O)NC2=C1c1ccc(Cl)cc1CC2")
"213 °C"
>>> value_measured("c1ccc2c(c1)CNc1ccccc1O2")
"74 to 76 °C"
>>> value_measured("Cc1cc(C)c2cccc(OCc3c(Cl)ccc(S(=O)(=O)N4CCC[C@H]4C(=O)NCc4cccc(C(N)=S)c4)c3Cl)c2n1")
"116 to 118 °C"
>>> value_measured("Cc1ccccc1-c1cn(C)cc(-c2cccc(C(F)(F)F)c2)c1=S")
"193 to 195 °C"
>>> value_measured("NC(=O)Nc1ccc2c(c1)N1CCN=C1S2")
"300 °C"
>>> value_measured("OC[C@@H](O)COc1ccc(OCc2ccccc2)cc1")
"125 to 126 °C"

Parameters: items (list). Returns: melting point for each item.
1. C(=Nc1ncc[nH]1)c1ccccc1
2. O=C1CCN(Cc2ccccc2)CC1C1c2ccccc2Oc2ccccc21 (stereo not drawn)
3. CC(C)Oc1ccccc1NC(=O)Nc1ccc2cnccc2n1
4. Cc1cc(C(C)C)cc(C)c1CCl
5. Cc1cc(C)c2c(n1)Nc1ccccc1NC2=O
6. COc1ccccc1NC(=O)c1nc2c(s1)CN(C)CC2
7. CCC(CC)C(c1ccnn1-c1ccccc1)N(C)S(=O)(=O)c1ccc(Cl)c(Cl)c1 (stereo not drawn)
8. Cc1cc2c(cc1C)N(C)c1cscc1C(=O)N2CCN(C)C

["122 °C", "124 to 125 °C", "78 to 80 °C", "63 to 65 °C", "297 to 299 °C", "196 to 198 °C", "102 to 104 °C", "119 to 120 °C"]
